assay: growth of efflux-deficient E. coli DRC39 – strain DRC39, OD650, 24 h, E. coli filamentation inducers, primary screen (AID 1178);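 note: growth measured as culture turbidity by optical density at 650 nm; test concentration not given here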; conditions: E. coli DRC39 acrAB, higher = more signal, called active from +8 up or from −8 down

>  <compound>
COC(=O)[C@@]1(Cc2ccccc2)[C@H]2c3cc(C(=O)N4CCCC4)n(Cc4ccc(O)c(OC)c4)c3C[C@H]2CN1C(=O)c1ccccc1

>  <z-score>
-1.12

$$$$
>  <compound>
COCCCNC(=O)[C@@H]1c2ccccc2C(=O)N(Cc2ccccc2)[C@H]1c1ccc(CO)cc1

>  <z-score>
0.38

$$$$
>  <compound>
COC(=O)c1c(CC[C@@H](CO)NC(=O)NCCc2c[nH]c3ccccc23)oc(C(=O)Cc2ccccc2)c1C(=O)OC

>  <z-score>
1.04

$$$$
>  <compound>
CC(=O)NCCCC[C@@H]1NC(=O)[C@H]2C[C@@H](C(=O)O)[C@@H](c3ccc(O)cc3)N2C1=O

>  <z-score>
-1.91

$$$$
>  <compound>
O=C1C2C=CC(C(O)c3cc(C(F)(F)F)cc(C(F)(F)F)c3)N(Nc3ccccc3)C2C(=O)N1c1ccccc1 (stereo unspecified)

>  <z-score>
-0.921

$$$$
>  <compound>
CC(C)(C)OC(=O)CC[C@]1(C(=O)NCCN2CCOCC2)COC(c2ccc(OCCCO)cc2)=N1

>  <z-score>
0.119

$$$$
>  <compound>
COc1ccc(C(=O)Nc2cccc(CN3C(=O)[C@]4(O[C@H](CCn5cc(CCO)nn5)[C@@H]([Si](C)(C)c5ccc(OC)cc5)[C@@H]4C)c4ccccc43)c2)cc1

>  <z-score>
0.216

$$$$
>  <compound>
Cc1ccc(C2C3C(=O)CC4C(=O)N(c5ccccc5)C(=O)C4C3CN2S(=O)(=O)c2ccc(C)cc2)cc1 (stereo unspecified)

>  <z-score>
-0.478

$$$$
>  <compound>
O=C1NC(=O)C2C1C=CC(C(O)c1ccc(I)cc1)N2Nc1ccccn1 (stereo unspecified)

>  <z-score>
-0.062

$$$$
>  <compound>
[N-]=[N+]=NCc1ccccc1[C@@H]1OC(c2ccc(OCCCO)cc2)=N[C@]1(CCS(=O)(=O)c1ccccc1)C(=O)N1CCCCC1

>  <z-score>
-0.523

$$$$
>  <compound>
COCCOC(=O)N1C(=O)[C@@]2(c3cc(C#CC4(O)CCCCCC4)ccc31)[C@H](C(=O)Nc1nc3ccccc3s1)[C@H]1C(=O)O[C@H](c3ccccc3)[C@H](c3ccccc3)N1[C@@H]2c1ccccc1OCCO

>  <z-score>
-0.632

$$$$
>  <compound>
CCCCN1CC=CC23O[C@@H]4/C=C\CCCOC(=O)C4[C@H]2C(=O)N(CCCO)[C@@H]3C1=O (stereo partly specified)

>  <z-score>
-0.0564

$$$$
>  <compound>
COCCCNC(=O)[C@@H]1c2ccccc2C(=O)N(Cc2ccccc2OC)[C@H]1c1ccc(CO)cc1

>  <z-score>
0.342

$$$$
>  <compound>
CC1CC/C=C\[C@H]2OC34C=CCN(Cc5ccccc5)C(=O)[C@H]3N(C(C)CO)C(=O)[C@@H]4C2C(=O)O1 (stereo partly specified)

>  <z-score>
0.492

$$$$
>  <compound>
O=C(NCc1ccccc1)[C@@H]1c2ccccc2C(=O)N(C2Cc3ccccc3C2)[C@H]1c1ccc(CO)cc1

>  <z-score>
0.0426

$$$$
>  <compound>
COc1ccc([Si](C)(C)[C@@H]2[C@@H](CCn3cc([C@H](O)c4ccccc4)nn3)O[C@]3(C(=O)N(Cc4cccc(N5CCC5=O)c4)c4ccccc43)[C@H]2C)cc1

>  <z-score>
0.603

$$$$
>  <compound>
C=CCC(OC(C)=O)[C@@H]1[C@@H](N(Cc2cc3ccccc3o2)C(=O)Cc2ccc(OC)cc2)c2cc(OCCCO)ccc2N1C(=O)c1ccc2ccccc2c1 (stereo partly specified)

>  <z-score>
-0.629

$$$$
>  <compound>
O=C1O[C@H](c2ccccc2)[C@H](c2ccccc2)N2[C@H]1[C@@H](C(=O)NC[C@H](O)c1ccccc1)[C@]1(C(=O)Nc3ccccc31)[C@H]2c1ccc(O)cc1

>  <z-score>
0.759

$$$$
>  <compound>
COCC(=C=CC[C@@H](O)c1ccc(OCCO)cc1)C[C@@H](O)c1ccccn1

>  <z-score>
0.0525

$$$$
>  <compound>
C=CC[C@]1(C(=O)NCc2ccccc2)N=C(c2ccc(OCCCO)cc2)O[C@H]1c1ccccc1CN=[N+]=[N-]

>  <z-score>
-0.0443

$$$$
>  <compound>
CN1C(=O)C2C=CC(C(O)c3c(F)cccc3Cl)N(NC(=O)OC(C)(C)C)C2C1=O (stereo unspecified)

>  <z-score>
-0.775

$$$$
>  <compound>
COC(=O)[C@@]1(Cc2ccc(OC)cc2)[C@H]2c3cc(C(=O)N4CCCC4)n(CCCNc4ncc(C(F)(F)F)cc4Cl)c3C[C@H]2CN1C(=O)c1ccccc1

>  <z-score>
-0.0379

$$$$
>  <compound>
C=C(CCCC)/C(=C/C[C@H](OC(C)=O)c1ccc(OCCO)cc1)c1cnc2ccccc2c1

>  <z-score>
0.187

$$$$
>  <compound>
COCC(=C=CC[C@H](O)c1cccc(OCCO)c1)CCO

>  <z-score>
0.128

$$$$
>  <compound>
CC[C@@H]1C=C(C(=O)O)[C@H](c2cccc3ccccc23)N1S(=O)(=O)c1ccc(C)cc1

>  <z-score>
-0.624

$$$$
>  <compound>
O=C1OCC=C[C@H]2OC34C=CCN(CCN5CCOCC5)C(=O)[C@H]3N(CCO)C(=O)[C@@H]4[C@@H]12 (stereo partly specified)

>  <z-score>
-0.533

$$$$
>  <compound>
OCC1C=C(/C=C/c2ccccc2)CN1Cc1ccccc1Br (stereo unspecified)

>  <z-score>
1.79

$$$$
>  <compound>
COc1ccc(CCNC(=O)[C@@]2(c3ccc([N+](=O)[O-])cc3)CC(=O)N(CC34CC5CC(CC(C5)C3)C4)[C@@H]2c2ccc(CO)cc2I)cc1

>  <z-score>
0.0777

$$$$
>  <compound>
CCCC[C@@H]1C[C@H]1[C@@H](NC(=O)c1cccnc1)c1ccc(Cl)cc1

>  <z-score>
0.014

$$$$
>  <compound>
COc1ccc(C(O)C2C=CC3C(=O)N(C)C(=O)C3N2NC(=O)OC(C)(C)C)c2ccccc12 (stereo unspecified)

>  <z-score>
-0.45

$$$$
>  <compound>
CC(CO)N1C(=O)[C@@H]2C3C(=O)OCCC/C=C\[C@H]3OC23C=CCN(CCN2CCOCC2)C(=O)[C@@H]13 (stereo partly specified)

>  <z-score>
0.218

$$$$
